# Target Of Assay: 5-hydroxytryptamine receptor 1A (Rattus norvegicus, UniProt P19327)
# Sequence (P19327 whole entry): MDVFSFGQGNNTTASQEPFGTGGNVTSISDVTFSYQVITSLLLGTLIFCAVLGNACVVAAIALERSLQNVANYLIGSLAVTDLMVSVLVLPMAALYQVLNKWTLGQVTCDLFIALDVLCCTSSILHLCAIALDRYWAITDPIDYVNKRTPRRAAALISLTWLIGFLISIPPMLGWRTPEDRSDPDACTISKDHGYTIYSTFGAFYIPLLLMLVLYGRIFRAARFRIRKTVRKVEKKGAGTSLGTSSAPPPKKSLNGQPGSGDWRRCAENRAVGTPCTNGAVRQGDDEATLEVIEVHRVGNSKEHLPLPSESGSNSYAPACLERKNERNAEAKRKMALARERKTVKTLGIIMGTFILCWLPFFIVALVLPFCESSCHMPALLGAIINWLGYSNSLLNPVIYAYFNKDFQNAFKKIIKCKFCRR
Experimental Endpoint: pKi
# reply with the number alone; pKi is -log10 of concentration in mol/L

Example cases with answers are listed next.
>>> df
                               given_smiles  assay_result
0  CCOc1cccc2c1-c1cc(O)cc3c1[C@@H](C2)N(C)CC3          6.36
1     COc1cc2c3c(c1)-c1ccccc1C[C@H]3N(C)CC2          5.58

Attention now turns to another entry.
Provide measured pKi value, entry: CCCN1CCc2cc(OC)cc3c2[C@H]1Cc1ccccc1-3
5.80
